Target: KRAS G12D (Homo sapiens, UniProt P01116, G12D)
Sequence (P01116 1-188 isoform P01116-2 G12D): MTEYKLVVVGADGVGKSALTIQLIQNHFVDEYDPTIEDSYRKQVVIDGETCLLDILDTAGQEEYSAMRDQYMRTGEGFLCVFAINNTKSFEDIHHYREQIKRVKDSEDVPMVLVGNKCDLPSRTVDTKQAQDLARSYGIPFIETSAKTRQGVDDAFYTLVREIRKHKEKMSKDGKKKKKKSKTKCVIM
Assay: KRAS G12D Probe Displacement Assay (TR-FRET, GDP-loaded)
Assay type: binding
Settings: KRAS G12D, read-out: KRAS^G12D Probe Displacement Assay IC50
pIC50: −log10 of the molar value.
value_kind: pIC50

Request: GET /values?readout=pIC50&item= "COC[C@@H]1[C@@H]2C[C@@H]2CN1CC1(COc2nc3c4c(nc(-c5cc(N)cc(C)c5C(F)(F)F)c(F)c4n2)OCC[C@@H]2[C@@H]4CC[C@H](CN32)N4)CC1"
Result: 8.52 to 9.52

Request: For Cc1cc(N)cc(-c2nc3c4c(nc(OCC5(CN6CCC6)CC5(F)F)nc4c2F)N2C[C@H]4CC[C@H](N4)[C@H]2CCO3)c1C(F)(F)F (single isomer, unassigned) [Example 57] , what is its reported pIC50?
Result: 8.52 to 9.52

Request: Any idea what pIC50 was measured for CN(C)CC1(COc2nc3c4c(nc(-c5cc(N)cc(Cl)c5C(F)(F)F)c(F)c4n2)OCC[C@@H]2[C@@H]4CC[C@H](CN32)N4)CC1F (single isomer, unassigned) ?
Result: > 9.52

Request: Which measured pIC50 value corresponds to "Cc1cc(N)cc(-c2nc3c4c(nc(OCC5(CN6CCC(F)CC6)CC5)nc4c2F)N2C[C@H]4CC[C@H](N4)[C@H]2CCO3)c1C(F)(F)F" ?
Result: > 9.52

Request: Recorded pIC50 for CO[C@@H]1C[C@@H](C(C)Oc2nc3c4c(nc(-c5cc(N)cc(C)c5C(F)(F)F)c(F)c4n2)OCC[C@@H]2[C@@H]4CC[C@H](CN32)N4)N(C)C1 (single isomer, unassigned) [Example 144] , please?
Result: > 9.52

Request: Recorded pIC50 of Cc1cc(N)cc(-c2nc3c4c(nc(OCC5(CN6CC=CC6CO)CC5)nc4c2F)N2C[C@H]4CC[C@H](N4)[C@H]2CCO3)c1C(F)(F)F (stereo partly shown) , please.
Result: > 9.52

Request: Given the compound "Cc1cc(N)cc(-c2nc3c4c(nc(OCC5(CN6CCC(C)(O)CC6)CC5)nc4c2F)N2C[C@H]4CC[C@H](N4)[C@H]2CCO3)c1C(F)(F)F" , what is its reported pIC50?
Result: > 9.52

Request: Report pIC50 for Cc1cc(N)cc(-c2nc3c4c(nc(OCC5(C)CC(F)CN(C6CCOCC6)C5)nc4c2F)N2C[C@H]4CC[C@H](N4)[C@H]2CCO3)c1C(F)(F)F (single isomer, unassigned) [Example 234] please.
Result: 8.52 to 9.52

Request: # query: pIC50 of entry Cc1cc(N)cc(-c2nc3c4c(nc(OCC5(CN6CC7CC7(CO)C6)CC5)nc4c2F)N2C[C@H]4CC[C@H](N4)[C@H]2CCO3)c1C(F)(F)F (mixture of isomers)
Result: > 9.52

Request: # lookup: pIC50 of CCN1CC(F)CC(C)(COc2nc3c4c(nc(-c5cc(N)cc(C)c5C(F)(F)F)c(F)c4n2)OCC[C@@H]2[C@@H]4CC[C@H](CN32)N4)C1 (stereo partly shown) [Example 202]
Result: > 9.52

* * *

Molecular target: KRAS G12D (Homo sapiens, UniProt P01116, G12D)
Test: KRAS G12D Probe Displacement Assay (TR-FRET, GDP-loaded)
Format: binding
Conditions: KRAS G12D, read-out: KRAS^G12D Probe Displacement Assay IC50
pIC50: −log10 of the molar value.
I'd be grateful if you could share measured pIC50 for these entries.

Request: Which measured pIC50 value corresponds to Cc1cc(N)cc(-c2nc3c4c(nc(OCC56CC(F)CN5CC(F)C6)nc4c2F)N2C[C@H]4CC[C@H](N4)[C@H]2CCO3)c1C(F)(F)F (some centres unmarked) [Example 6] ?
Result: 8.52 to 9.52

Request: State the recorded pIC50 for this entry: Cc1cc(N)cc(-c2nc3c4c(nc(OCC5(CN6CCC7(CC6)CC7(F)F)CC5)nc4c2F)N2C[C@H]4CC[C@H](N4)[C@H]2CCO3)c1C(F)(F)F [Example 158]
Result: > 9.52

Request: GET /values?readout=pIC50&item= Cc1cc(N)cc(-c2nc3c4c(nc(OCC5(CN6CCOC7(CC7)C6)CC5)nc4c2F)N2C[C@H]4CC[C@H](N4)[C@H]2CCO3)c1C(F)(F)F [Example 120]
Result: > 9.52

Request: Data request, read-out pIC50, for [2H]C([2H])([2H])c1cc(N)cc(-c2nc3c4c(nc(OC[C@]5(CN(C)C)CC5(F)F)nc4c2F)N2C[C@H]4CC[C@H](N4)[C@H]2CCO3)c1C(F)(F)F [Example 47]
Result: > 9.52

Request: Fill blank: measured pIC50 of the molecule Cc1cc(N)cc(-c2nc3c4c(nc(OCC5(CN6CCCC(C(F)(F)F)C6)CC5)nc4c2F)N2C[C@H]4CC[C@H](N4)[C@H]2CCO3)c1C(F)(F)F (some centres unmarked) [Example 118] is ____.
Result: > 9.52

Request: Looking for the measured pIC50 of Cc1cc(N)cc(-c2nc3c4c(nc(OCC5(C)COCC5N(C)C)nc4c2F)N2C[C@H]4CC[C@H](N4)[C@H]2CCO3)c1C(F)(F)F (single isomer, unassigned) [Example 42] , can you help?
Result: 8.52 to 9.52

Request: Can you share its pIC50? I mean this molecule: Cc1nc(N)cc(-c2nc3c4c(nc(OC[C@]5(CN(C)C)CC5(F)F)nc4c2F)N2C[C@H]4CC[C@H](N4)[C@H]2CCO3)c1C(F)(F)F [Example 48]
Result: > 9.52

Request: Quick one: pIC50 for [2H]C([2H])([2H])N1CCC(C(F)F)C(C)(C([2H])([2H])Oc2nc3c4c(nc(-c5cc(N)cc(C)c5C(F)(F)F)c(F)c4n2)OCC[C@@H]2[C@@H]4CC[C@H](CN32)N4)C1 (single isomer, unassigned) [Example 240] ?
Result: 8.52 to 9.52

Request: Value lookup for pIC50; key = COC1CN(C)CC(C)(COc2nc3c4c(nc(-c5cc(N)cc(C)c5C(F)(F)F)c(F)c4n2)OCC[C@@H]2[C@@H]4CC[C@H](CN32)N4)C1 (some centres unmarked) [Example 129]
Result: 6.00 to 8.52

Request: # input molecule: Cc1cc(N)cc(-c2nc3c4c(nc(OCC5(CN6CC7CC7C6)CC5(F)F)nc4c2F)N2C[C@H]4CC[C@H](N4)[C@H]2CCO3)c1C(F)(F)F (single isomer, unassigned) [Example 28] ; wanted: its pIC50
Result: > 9.52

Request: Query (molecule): Cc1cc(N)cc(-c2nc3c4c(nc(OCC5(CN6CCC(C#N)CC6)CC5)nc4c2F)N2C[C@H]4CC[C@H](N4)[C@H]2CCO3)c1C(F)(F)F [Example 165] ; field requested: pIC50
Result: > 9.52

* * *

Molecular target: WT KRAS (Homo sapiens, UniProt P01116)
Sequence (P01116 1-188 isoform P01116-2): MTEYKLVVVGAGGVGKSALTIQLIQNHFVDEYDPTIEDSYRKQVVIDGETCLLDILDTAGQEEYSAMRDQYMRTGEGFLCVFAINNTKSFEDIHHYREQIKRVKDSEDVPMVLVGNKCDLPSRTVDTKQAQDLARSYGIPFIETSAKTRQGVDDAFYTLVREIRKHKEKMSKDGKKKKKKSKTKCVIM
Assay: KRAS WT Probe Displacement Assay (TR-FRET, GDP-loaded)
Format: binding
Conditions: KRAS WT, read-out: KRAS^WT Probe Displacement Assay IC50
value_kind: IC50

Request: Reported IC50 for WT KRAS (Homo sapiens, UniProt P01116), given Cc1cc(N)cc(-c2nc3c4c(nc(OCC5(CN6CC(C)OC(C)C6)CC5(F)F)nc4c2F)N2C[C@H]4CC[C@H](N4)[C@H]2CCO3)c1C(F)(F)F (single isomer, unassigned) [Example 24] ?
Result: 3 to 1000 nM

Request: Identify the measured IC50 of Cc1cc(N)cc(-c2nc3c4c(nc(OCC5(CN6CCCC6CO)CC5)nc4c2F)N2C[C@H]4CC[C@H](N4)[C@H]2CCO3)c1C(F)(F)F (single isomer, unassigned) [Example 124] for WT KRAS (Homo sapiens, UniProt P01116).
Result: 3 to 1000 nM

Request: Form entry - test system: WT KRAS (Homo sapiens, UniProt P01116); read-out: IC50; compound: Cc1cc(N)cc(-c2nc3c4c(nc(OCC5(C)CN(C)CCC5C(F)F)nc4c2F)N2C[C@H]4CC[C@H](N4)[C@H]2CCO3)c1C(F)(F)F (single isomer, unassigned) [Example 245]
Result: 0.3 to 3 nM

Request: # value lookup — system WT KRAS (Homo sapiens, UniProt P01116), readout IC50, item Cc1nc(N)cc(-c2nc3c4c(nc(OCC5(CN6CCC(=CF)CC6)CC5)nc4c2F)N2C[C@H]4CC[C@H](N4)[C@H]2CCO3)c1C(F)(F)F [Example 155]
Result: 3 to 1000 nM

Request: Observed IC50 on WT KRAS (Homo sapiens, UniProt P01116) for CN(C)C[C@]1(COc2nc3c4c(nc(-c5cc(N)cc(Cl)c5C(F)(F)F)c(F)c4n2)OCC[C@@H]2[C@@H]4CC[C@H](CN32)N4)CC1(F)F [Example 44] , please.
Result: 0.3 to 3 nM

Request: API: value(readout= IC50, system= WT KRAS (Homo sapiens, UniProt P01116), query= COC1(C)CN(CC2(COc3nc4c5c(nc(-c6cc(N)cc(C)c6C(F)(F)F)c(F)c5n3)OCC[C@@H]3[C@@H]5CC[C@H](CN43)N5)CC2)C1 [Example 84] )
Result: 3 to 1000 nM

Request: Report IC50 for Cc1cc(N)cc(-c2nc3c4c(nc(O[C@H]5COCC[C@@H]5N(C)C)nc4c2F)N2C[C@H]4CC[C@H](N4)[C@H]2CCO3)c1C(F)(F)F [Example 8] tested on WT KRAS (Homo sapiens, UniProt P01116).
Result: 3 to 1000 nM

Request: IC50 of Cc1cc(N)cc(-c2nc3c4c(nc(OCC5(C)CC(F)CN(C)C5)nc4c2F)N2C[C@H]4CC[C@H](N4)[C@H]2CCO3)c1C(F)(F)F (stereo partly drawn) [Example 5] on WT KRAS (Homo sapiens, UniProt P01116)?
Result: 3 to 1000 nM

Request: Param readout= IC50; system= WT KRAS (Homo sapiens, UniProt P01116); entry= CO[C@H]1CCN(C)[C@@H]1C(C)Oc1nc2c3c(nc(-c4cc(N)cc(C)c4C(F)(F)F)c(F)c3n1)OCC[C@@H]1[C@@H]3CC[C@H](CN21)N3 (single isomer, unassigned) [Example 75] ; returns value.
Result: 3 to 1000 nM

Request: Give the reported IC50 for Cc1cc(N)cc(-c2nc3c4c(nc(OCC5(CN6C[C@H]7C[C@@H]6CO7)CC5)nc4c2F)N2C[C@H]4CC[C@H](N4)[C@H]2CCO3)c1C(F)(F)F [Example 65] (system: WT KRAS (Homo sapiens, UniProt P01116)).
Result: 3 to 1000 nM

Request: Record lookup: for WT KRAS (Homo sapiens, UniProt P01116), what IC50 belongs to [2H]C([2H])([2H])c1cc(N)cc(-c2nc3c4c(nc(OCC56C[C@@H](F)CN5C[C@H](F)C6)nc4c2F)N2C[C@H]4CC[C@H](N4)[C@H]2CCO3)c1C(F)(F)F [Example 73] ?
Result: 3 to 1000 nM

Request: What IC50 appears in the records for this compound with WT KRAS (Homo sapiens, UniProt P01116)? COC1CCN(CC2(COc3nc4c5c(nc(-c6cc(N)cc(C)c6C(F)(F)F)c(F)c5n3)OCC[C@@H]3[C@@H]5CC[C@H](CN43)N5)CC2)CC1 [Example 110]
Result: 3 to 1000 nM

Request: Which IC50 is reported with WT KRAS (Homo sapiens, UniProt P01116) for this entry: CN(C)C[C@@]1(COc2nc3c4c(nc(-c5cc(N)cc(Cl)c5C(F)(F)F)c(F)c4n2)OCC[C@@H]2[C@@H]4CC[C@H](CN32)N4)CC1(F)F [Example 45] ?
Result: 0.3 to 3 nM

Request: Look up IC50 with WT KRAS (Homo sapiens, UniProt P01116) for this compound: Cc1cc(N)cc(-c2nc3c4c(nc(OC[C@@]56CCCN5CC(=C(F)F)C6)nc4c2F)N2C[C@H]4CC[C@H](N4)[C@H]2CCO3)c1C(F)(F)F [Example 200]
Result: 3 to 1000 nM

Request: What IC50 appears in the records for this compound with WT KRAS (Homo sapiens, UniProt P01116)? Cc1cc(N)cc(-c2nc3c4c(nc(OCC5(CN6C[C@@H]7C[C@H]6CO7)CC5)nc4c2F)N2C[C@H]4CC[C@H](N4)[C@H]2CCO3)c1C(F)(F)F [Example 68]
Result: 3 to 1000 nM

Request: API: value(readout=IC50, system=WT KRAS (Homo sapiens, UniProt P01116)) for record Cc1cc(N)cc(-c2nc3c4c(nc(OCC5(F)COCC5N(C)C)nc4c2F)N2C[C@H]4CC[C@H](N4)[C@H]2CCO3)c1C(F)(F)F (stereo partly drawn) [Example 132]
Result: 3 to 1000 nM

Request: State its IC50 on WT KRAS (Homo sapiens, UniProt P01116): Cc1cc(N)cc(-c2nc3c4c(nc(OCC5(CN6C[C@@H](F)[C@@H](O)C6)CC5)nc4c2F)N2C[C@H]4CC[C@H](N4)[C@H]2CCO3)c1C(F)(F)F (stereo in doubt) [Example 95]
Result: 3 to 1000 nM

Request: Lab request: please report IC50 under test system WT KRAS (Homo sapiens, UniProt P01116) for Cc1cc(N)cc(-c2nc3c4c(nc(OCC5(C)COCC5N(C)C)nc4c2F)N2C[C@H]4CC[C@H](N4)[C@H]2CCO3)c1C(F)(F)F (single isomer, unassigned) [Example 42]
Result: 3 to 1000 nM

Request: State its IC50 on WT KRAS (Homo sapiens, UniProt P01116): Cc1cc(N)cc(-c2nc3c4c(nc(OCC5(CN6C[C@H](O)[C@@H](F)C6)CC5)nc4c2F)N2C[C@H]4CC[C@H](N4)[C@H]2CCO3)c1C(F)(F)F (stereo in doubt) [Example 94]
Result: 3 to 1000 nM

Request: Can you look up IC50 on WT KRAS (Homo sapiens, UniProt P01116) for CO[C@@H]1CCN(CC2(COc3nc4c5c(nc(-c6cc(N)cc(C)c6C(F)(F)F)c(F)c5n3)OCC[C@@H]3[C@@H]5CC[C@H](CN43)N5)CC2)C1 [Example 87] ?
Result: 3 to 1000 nM

Request: # returns recorded IC50 (system: WT KRAS (Homo sapiens, UniProt P01116)) for Cc1cc(N)cc(-c2nc3c4c(nc(OCC56CCCN5CC(F)(F)C6)nc4c2F)N2C[C@H]4CC[C@H](N4)[C@H]2CCO3)c1C(F)(F)F (stereo partly drawn) [Example 1]
Result: 3 to 1000 nM
